Taken from PubChem BioAssay.

Overview of reported z-score across a group of compounds:
# studyTarget: NADPH oxidase 4 (Homo sapiens)
# assayInfo: NOX4-dependent H2O2 signal modulators, primary screen, NOX inhibitor project, cell-based, HEK293-NOX4, tetracycline-induced, Amplex Red fluorescence (AID 1160)
# conditionDescription: 45 min, higher = more signal, called active from +8 up or from −8 down
The source made the active and inactive calls.
valueKind: z-score

>  <compound>
CCOC(=O)[C@H](CC(C)C)NC(=O)CCC1CC(OC(=O)NCc2ccc3c(c2)OCO3)CC2(CCCC(COC(=O)NCCC(C)C)O2)O1 (stereo partly drawn)

>  <studyTarget>
NADPH oxidase 4 (Homo sapiens)

>  <recordedMeasurement>
0.115 (inactive)

$$$$
>  <compound>
CCOC(=O)CCN1C(=O)[C@H]2[C@H]3[C@H](O)[C@H](O)CC(=NO[C@@H]4O[C@H](CO)[C@@H](O)[C@H](O)[C@H]4O)[C@H]3CC[C@H]2C1=O

>  <studyTarget>
NADPH oxidase 4 (Homo sapiens)

>  <recordedMeasurement>
0.451 (inactive)

$$$$
>  <compound>
CC(C)CON=C1C[C@@H](O)[C@@H](O)[C@@H]2[C@@H]3C(=O)N(c4ccc(F)cc4F)C(=O)[C@@H]3CC[C@@H]12

>  <studyTarget>
NADPH oxidase 4 (Homo sapiens)

>  <recordedMeasurement>
-1.87 (inactive)

$$$$

----------
As shown below, each of these molecules has a reported composite z-score value.
# studyTarget: Neurogenic locus notch homolog protein 2 (Homo sapiens)
# assayInfo: Notch2 binders on small-molecule microarrays, primary screen, biochemical, small-molecule microarray, 635 nm fluorescence, stem cell growth factors (AID 1073)
# conditionDescription: Notch2 binding, higher = more signal
valueKind: composite z-score

>  <sampleSmiles>
COC(=O)[C@@H]1CC[C@H](C)[C@@H](c2ccc(C)cc2)N1C(=O)c1ccc(C=NOC[C@@H](O)[C@H]2O[C@@H]3OC(C)(C)O[C@@H]3[C@H]2O)cc1

>  <valueKind>
composite z-score

>  <recordedMeasurement>
0.962

$$$$
>  <sampleSmiles>
CCN1C(=O)[C@H]2[C@H]3[C@H](O)[C@H](O)CC(=NOC[C@@H](O)[C@H]4O[C@@H]5OC(C)(C)O[C@@H]5[C@H]4O)[C@@H]3CC[C@H]2C1=O

>  <valueKind>
composite z-score

>  <recordedMeasurement>
0.352

$$$$
>  <sampleSmiles>
O=C1[C@H]2[C@H]3[C@H](O)[C@H](O)CC(=NOCc4ccccc4)[C@@H]3CC[C@H]2C(=O)N1c1cccc(Oc2ccccc2)c1

>  <valueKind>
composite z-score

>  <recordedMeasurement>
0.359

$$$$

----------
# studyTarget: Calmodulin-1 (Homo sapiens) (UniProt P0DP23)
# assayInfo: CALM1 binders on microarrays, EGTA buffer, profiling panel, biochemical, small-molecule microarray, Cy5-labelled CALM1 (AID 1111);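 note: labelled calmodulin applied in Tris saline Tween buffer holding calcium plus EGTA and DTT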
# conditionDescription: Cy5-CALM1 binding fluorescence, higher = more signal

>  <compound>
CC#CCOCCC=C1c2ccccc2[C@@H](OC)[C@@H]1C

>  <studyTarget>
Calmodulin-1 (Homo sapiens) (UniProt P0DP23)

>  <composite z-score>
-1.06

$$$$
>  <compound>
CO[C@H]1COC(=O)[C@H](C)COC(=O)[C@H](C)NC(=O)CC=C[C@H]1C

>  <studyTarget>
Calmodulin-1 (Homo sapiens) (UniProt P0DP23)

>  <composite z-score>
-0.891

$$$$
>  <compound>
COc1ccc(O[C@H]2C=C[C@@H](c3ccccc3)O[C@@H]2CO)cc1

>  <studyTarget>
Calmodulin-1 (Homo sapiens) (UniProt P0DP23)

>  <composite z-score>
-0.329

$$$$
>  <compound>
CCN1C(=O)[C@H]2[C@H]3[C@H](O)[C@H](O)CC(=NO[C@@H](C)c4cc(-c5c(C)cc(C)cc5C)no4)[C@@H]3CC[C@H]2C1=O

>  <studyTarget>
Calmodulin-1 (Homo sapiens) (UniProt P0DP23)

>  <composite z-score>
0.224

$$$$
>  <compound>
O=C1[C@H]2[C@H]3[C@H](O)[C@H](O)CC(=NOC[C@@H](O)COCc4ccco4)[C@@H]3CC[C@H]2C(=O)N1C1CCCCC1

>  <studyTarget>
Calmodulin-1 (Homo sapiens) (UniProt P0DP23)

>  <composite z-score>
-0.608

$$$$
>  <compound>
COC(=O)CC=C[C@@H](C)[C@@H](C=NOC[C@@H](C)[C@H](OCc1ccccc1)C(C)C)OC

>  <studyTarget>
Calmodulin-1 (Homo sapiens) (UniProt P0DP23)

>  <composite z-score>
-0.481

$$$$
>  <compound>
COc1ccc(O[C@H]2C=C[C@@H](C#Cc3ccccc3)O[C@@H]2CO)cc1

>  <studyTarget>
Calmodulin-1 (Homo sapiens) (UniProt P0DP23)

>  <composite z-score>
1.42

$$$$
>  <compound>
C=CC[C@@H]1C=C[C@H](ON=C2C[C@@H](O)[C@@H](O)[C@@H]3[C@@H]4C(=O)N(CC)C(=O)[C@@H]4CC[C@@H]23)[C@@H](CO)O1

>  <studyTarget>
Calmodulin-1 (Homo sapiens) (UniProt P0DP23)

>  <composite z-score>
-0.758

$$$$
>  <compound>
C[C@H]1C=CCC(=O)OC[C@H](C)C(=O)N2CCC[C@H]2C(=O)OC1

>  <studyTarget>
Calmodulin-1 (Homo sapiens) (UniProt P0DP23)

>  <composite z-score>
-0.774

$$$$
>  <compound>
CCOC(=O)CCN1C(=O)[C@H]2[C@H]3[C@H](O)[C@H](O)CC(=NO[C@@H]4O[C@H](CO)[C@@H](O)[C@H](O)[C@H]4O)[C@H]3CC[C@H]2C1=O

>  <studyTarget>
Calmodulin-1 (Homo sapiens) (UniProt P0DP23)

>  <composite z-score>
0.112

$$$$
>  <compound>
CO[C@@H](C1CCCCC1)[C@@H](C)[C@H](OCc1cccc(Br)c1)[C@@H](C)CO

>  <studyTarget>
Calmodulin-1 (Homo sapiens) (UniProt P0DP23)

>  <composite z-score>
-0.434

$$$$
>  <compound>
CCOC(=O)[C@H](CC(C)C)NC(=O)CCC1CC(OC(=O)NCc2ccc3c(c2)OCO3)CC2(CCCC(COC(=O)NCCOc3ccccc3)O2)O1 (stereo partly specified)

>  <studyTarget>
Calmodulin-1 (Homo sapiens) (UniProt P0DP23)

>  <composite z-score>
-0.0232

$$$$
>  <compound>
CC(C)CON=C1C[C@@H](O)[C@@H](O)[C@@H]2[C@@H]3C(=O)N([C@@H](C)c4ccccc4)C(=O)[C@@H]3CC[C@@H]12

>  <studyTarget>
Calmodulin-1 (Homo sapiens) (UniProt P0DP23)

>  <composite z-score>
-0.231

$$$$
>  <compound>
CCCNC(=O)OC[C@H]1O[C@H](CCON=C[C@@H](NS(=O)(=O)c2ccc(C)cc2)[C@H](C)C=CCC(=O)OC)C=C[C@@H]1Oc1ccc(OC)cc1

>  <studyTarget>
Calmodulin-1 (Homo sapiens) (UniProt P0DP23)

>  <composite z-score>
-1.21

$$$$
>  <compound>
O=C1[C@H]2CCn3c(=O)n(-c4ccccc4)c(=O)n3[C@H]2[C@H](O)[C@@H]2O[C@H]12

>  <studyTarget>
Calmodulin-1 (Homo sapiens) (UniProt P0DP23)

>  <composite z-score>
-0.14

$$$$
>  <compound>
CC(C)C(=O)N[C@H]1CCCN1C(=O)C=Cc1ccccc1

>  <studyTarget>
Calmodulin-1 (Homo sapiens) (UniProt P0DP23)

>  <composite z-score>
-0.266

$$$$
